Target: T1, hK1 (human tissue kallikrein 1), recombinant (human, UniProt P06870 25-262)
T1 construct: Expressed in P. pastoris from KLK1 cDNA and purified; enzymatically active; also called KLK1; Recombinant (Pichia) Kallikrein
Experiment: SPR
Each item that follows carries a reported koff.
Dear colleague, please return just the value in s⁻¹, with no unit written.

Here is how some binders turned out for koff.
binder	koff [s⁻¹]
M0101-E01 (Fab, V domains shown) VH: EVQLLESGGGLVQPGGSLRLSCAASGFTFSPYIMSWVRQAPGKGLEWVSSIVSSGGVTLYADSVKGRFTISRDNSKNTLYLQMNSLRAEDTAVYYCTKNINLRYDILTGYFDIWGQGTTVTVSS VL: DIQMTQSPSSVSASVGDRVTITCRAGQNIYYWLAWYQQKPGKAPQLLIYAASSLQSGVPSRFSGSGSGTDFTLTISSLQPEDFATYYCQQAKSFPVTFGGGTKVEIKR	0.000941
M0139-E12 (Fab, V domains shown) VH: EVQLLESGGGLVQPGGSLRLSCAASGFTFSWYSMNWVRQAPGKGLEWVSSIGPSGGGTKYADSVKGRFTISRDNSKNTLYLQMNSLRAEDTAVYYCASRGQRKQWLPPNGAFDIWGQGTMVTVSS VL: DIQMTQSPSSVSASVGDRVTMTCRASRGISNWLAWYQQKPGKAPELLIHSASTLHAGVPSRFSGSGSGTDFTLTISSLQPGDFATYYCQEGNSFPYTFGQGTNLQIKR	0.000233
M0092-B12 (Fab, V domains shown) VH: EVQLLESGGGLVQPGGSLRLSCAASGFTFSQYLMAWVRQAPGKGLEWVSSIYPSGGNTNYADSVKGRFTISRDNSKNTLYLQMNSLRAEDTAVYYCARDRSIVPYSSSWYMPRDYYYGMDVWGQGTTVTVSS VL: DIQMTQSPSSLSASVGDRVTITCRASQGISNYLAWYQQKPGKVPKLLIYAASTLQSGVPSRFSGSGSGTDFTLTISSLQPEDFATYYCQQSYSTPYTFGQGTKLEVRR	0.00171
M0108-E10 (Fab, V domains shown) VH: EVQLLESGGGLVQPGGSLRLSCAASGFTFSRYRMVWVRQAPGKGLEWVSSIYPSGGYTKYADSVKGRFTISRDNSKNTLYLQMNSLRAEDTAVYYCARVITYNNFDSWGQGTLVTVSS VL: DIQMTQSPGTLSLSPGERATLSCRASQTVSSTYLAWYQQKPGQAPRLLIYGASSRATGIPDRFSGGGSGTDFTLTISRLEPEDFAVYYCQQYGSSPPRYTFGQGTKLEIKR	0.0134
M0118-E07 (Fab, V domains shown) VH: EVQLLESGGGLVQPGGSLRLSCAASGFTFSHYPMDWVRQAPGKGLEWVSRIYPSGGATKYADSVKGRFTISRDNSKNTLYLQMNSLRAEDTATYYCARGGGAFDIWGQGTMVTVSS VL: DIQMTQSPSSLSASVGDRVTITCRASQGISNYLAWYQQKPGKVPKLLIYAASTLQSGVPSRFSGSGSGTDFTLTISSLQPEDVATYYCQKYNSAPLTFGGGTKVEIKR	0.0871
M0137-G10 (Fab, V domains shown) VH: EVQLLESGGGLVQPGGSLRLSCAASGFTFSRYVMHWVRQAPGKGLEWVSYISPSGGVTKYADSVKGRFTISRDNSKNTLYLQMNSLRAEDTAVYYCAKALYPGMGYYYGMDVWGQGTTVTVSS VL: DIQMTQSPSSLSASVGDRVTITCRTSQTVSTFLNWYQQKPGTAPKLLIYAASRLQSGVPSRFSGSGSETDFTLTISRLQPEDFATYYCQQSFTSPRTFGLGTKVEIKR	0.00513

Reported koff for M0131-B05 (Fab, V domains shown) VH: EVQLLESGGGLVQPGGSLRLSCAASGFTFSHYVMSWVRQAPGKGLEWVSYIYPSGGKTHYADSVKGRFTISRDNSKNTLYLQMNSLRAEDTAVYYCARVGVWYGMDVWGQGTTVTVSS VL: AQYELTQPASVSGSPGQSITISCTGTSSDIGAYNYVSWYQQHPGKAPKLMIYDVSNRPSGVSNRFSGSKSGNTASLTISGLQAEDEADYYCSSYRSSSLMFGGGTKLTVLG : what is it?
0.000117

Reported koff for M0093-G09 (Fab, V domains shown) VH: EVQLLESGGGLVQPGGSLRLSCAASGFTFSWYSMTWVRQAPGKGLEWVSSISPSGGATKYADSVKGRFTISRDNSKNTLYLQMNSLRAEDTAVYYCARGGAASLPFDYWGQGTLVTVSS VL: DIQMTQSPSSLSASVGDRVTITCRASQSISSFLNWYQQKPGKAPKLLLMYAASSLQSGVPSRFSGSGSGTDFTLTISSLQPEDFATYYCQQSYSTPYTFGQGTKLEIKR : what is it?
0.0105

Reported koff for M0123-E02 (Fab, V domains shown) VH: EVQLLESGGGLVQPGGSLRLSCAASGFTFSHYRMDWVRQAPGKGLEWVSGIYPSGGHTNYADSVKGRFTISRDNSKNTLYLQMNSLRAEDTAVYYCARDRGWYGADYWGQGTLVTVSS VL: AQSALTQPASVSGSPGQSITISCSGTSSDVGAYYHVSWYQQHPGKAPKLMIYDVSNRPSGVSNRFSGSKSGNTASLTISGLQAEDEADYYCSLYIGTSTPWVFGGGTKLTVLG : what is it?
0.00613

Reported koff for M0124-A01 (Fab, V domains shown) VH: EVQLLESGGGLVQPGGSLRLSCAASGFTFSNYPMYWVRQAPGKGLEWVSRIGPSGGHTDYADSVKGRFTISRDNSKNTLYLQMNSLRAEDTAVYYCARAGVWSGLDYWGQGTLVTVSS VL: DIQMTQSPSSLSASVGDRVTITCRASQSITGYLNWYQQKPGKAPKLLIYAASSLQSGVPSRFSGSGSGTDFTLSISSLQPEDFATYYCQQSYSTPYTFGQGTKLEIKR : what is it?
0.0114
